Hey, just so you know, these numbers are from paper PMC5540273.

System: CSNK1E;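 further: kd values determined as follow-up on hits from a single-replicate KINOMEscan panel screen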
pKd reference
Just the number, please; pKd means minus log10 of the concentration in mol/L.

Consider the following illustrative entries.
[
  {
    "smiles.repr": "Cc1cccc2c(-c3ccncn3)c(-c3ccc(F)cc3)nn12",
    "pKd": 5.47
  },
  {
    "smiles.repr": "Fc1ccc(-c2nc3n(c2-c2ccncc2)CCS3)cc1",
    "pKd": 6.74
  }
]

Tell me its pKd on CSNK1E: Fc1ccc(-c2nn3cccc(F)c3c2-c2ccncc2)cc1
6.66

====

System: PRKG1
Details: concentration: 1 μM, replicates: in singlicate; n = 1
quantity.name: %Inh (%)
The reply should be a number in %, with the unit left off.

Consider the following illustrative entries.
[
  {
    "molecule": "Cn1cnc2c(N)ncnc21 [SKF-97623]",
    "%Inh (%)": 6
  },
  {
    "molecule": "COc1ccc2cc(-c3nc(-c4ccccc4C(C)C)[nH]c3-c3ccncc3)ccc2c1 [SB-660566]",
    "%Inh (%)": 7
  }
]

Look up and report measured %Inh for this entry: O=c1cc(N2CCOCC2)nc2n(Cc3ccccc3F)ccn12 [GSK2297428]
0

Look up and report measured %Inh for this entry: O=C1NC(=O)C(c2ccc(Cl)cc2)=C1Nc1cccc(Cl)c1 [SB-317651]
3

Look up and report measured %Inh for this entry: CN1c2ccc(-c3ccc(C(N)=O)cc3)cc2-c2[nH]ncc2S1(=O)=O
0

Look up and report measured %Inh for this entry: Cc1nccc(-c2c(-c3ccc(F)cc3)ncn2CCCN2CCOCC2)n1.Cl [SB-282975]
10

Look up and report measured %Inh for this entry: CS(=O)(=O)Cc1ccc(Nc2nccc(-c3c(-c4cccc(NC(=O)C5CCCCC5)c4)nn4ncccc34)n2)cc1 [GSK350559]
0

Look up and report measured %Inh for this entry: Cc1ccc(NC(=O)c2ccc(Cl)cc2)cc1-c1ccc(C(=O)Nc2ccncc2)cc1 [GSK1398467]
0

Look up and report measured %Inh for this entry: CC(C)c1cc(-c2ccc3c(N)n[nH]c3c2)nc(N)n1 [GSK2250882]
24

Look up and report measured %Inh for this entry: CC(C)c1ccc(O)cc1Nc1ccnc2ccc(C(F)(F)F)cc12 [GW482059]
15

Look up and report measured %Inh for this entry: Nc1cccc(-c2ccc3c(N)n[nH]c3c2)n1 [GSK2192730]
0

Look up and report measured %Inh for this entry: CNC(=O)c1ccc(C)c(-n2c(C)cc(OCc3ccc(F)cc3F)c(Br)c2=O)c1
78

Look up and report measured %Inh for this entry: CCn1c(-c2c(N)noc2C)nc2cnccc21 [SB-737856]
0

Look up and report measured %Inh for this entry: Cn1cncc1C(=O)NC1CCN(c2ccnc(Nc3ccc(F)cc3)n2)C1 (stereo not shown) [GSK1379717]
0

Look up and report measured %Inh for this entry: COc1ccc(Nc2nccc(N3CCC(NC(=O)C(C)c4ccc(Cl)cc4)C3)n2)cc1 (stereo not shown) [GSK1379735]
0

Look up and report measured %Inh for this entry: Cc1ccccc1-c1cc(-c2c[nH]nc2-c2ccccn2)ccn1 [GW680061]
0

====

%Inh reference
System: MST2
Construct: gene STK3
Details: concentration: 1 μM, replicates: in singlicate; n = 1
The reply should be a number in %, with the unit left off.

Consider the following illustrative entries.
[
  {
    "compound": "CN1c2ccc(-c3ccc(C(N)=O)cc3)cc2-c2[nH]ncc2S1(=O)=O",
    "study.system": "MST2",
    "units.text": "%",
    "%Inh": 0
  },
  {
    "compound": "COc1cccc(C2=C(Nc3cc(Cl)c(O)c(Cl)c3)C(=O)NC2=O)c1",
    "study.system": "MST2",
    "units.text": "%",
    "%Inh": 29
  },
  {
    "compound": "Cc1ccccc1Cn1ccn2c(=O)cc(N3CCOCC3)nc12",
    "study.system": "MST2",
    "units.text": "%",
    "%Inh": 0
  },
  {
    "compound": "CNC(=O)c1ccc(C)c(-n2c(C)cc(OCc3ccc(F)cc3F)c(Br)c2=O)c1",
    "study.system": "MST2",
    "units.text": "%",
    "%Inh": 0
  },
  {
    "compound": "Nc1ncnc2occ(-c3ccc4c(c3)CCN4C(=O)Cc3cc(F)ccc3F)c12",
    "study.system": "MST2",
    "units.text": "%",
    "%Inh": 0
  },
  {
    "compound": "CCn1c(-c2ccccc2)nc2cnccc21",
    "study.system": "MST2",
    "units.text": "%",
    "%Inh": 6
  }
]

Look up and report measured %Inh for this entry: Fc1ccc(-c2nn3cccc(F)c3c2-c2ccncc2)cc1
0

Look up and report measured %Inh for this entry: Cc1ccc(NC(=O)c2ccc(Cl)cc2)cc1-c1ccc(C(=O)Nc2ccncc2)cc1
0

Look up and report measured %Inh for this entry: CCc1ccc(-c2ccc3c(c2)-c2n[nH]cc2S(=O)(=O)N3C)cc1
0

Look up and report measured %Inh for this entry: COc1ccc(Nc2nccc(N3CCC(NC(=O)c4cc5ccccc5s4)C3)n2)cc1 (centres unmarked)
0

Look up and report measured %Inh for this entry: COc1cccc(NC(=O)Nc2ccc(C)c(-c3ccc(C(=O)Nc4ccncc4)cc3)c2)c1
0

====

%Inh reference
Tested on: CDKL3
Settings: concentration: 1 μM, replicates: in singlicate; n = 1
The reply should be a number in %, with the unit left off.

[
  {
    "compound": "CS(=O)(=O)CCNCc1nc(-c2ccc3ncnc(Nc4ccc5c(cnn5Cc5ccccc5)c4)c3c2)cs1.Cl.Cl [GW569716]",
    "%Inh (%)": 100
  },
  {
    "compound": "CC(=O)c1c(C)c2cnc(Nc3ccn(C)n3)nc2n(C2CCCC2)c1=O",
    "%Inh (%)": 0
  },
  {
    "compound": "CNc1nc(-c2ccc3c(N)n[nH]c3c2)cc(N2C[C@@H](C(=O)Nc3ccccc3)CC[C@H]2C)n1 [GSK2298859]",
    "%Inh (%)": 0
  }
]

Attention now shifts to the item below.
Look up and report measured %Inh for this entry: CC(C)c1cc(-c2ccc3c(N)n[nH]c3c2)nc(N)n1 [GSK2250882]
0

====

Test system: STK36
Conditions: concentration: 1 μM, replicates: in singlicate; n = 1
%Inh reference
// unit must come after the numeric part

Consider the following illustrative entries.
[
  {
    "smiles.repr": "CCc1ccc(-c2ccc3c(c2)-c2n[nH]cc2S(=O)(=O)N3C)cc1",
    "quantity.name": "%Inh",
    "result": "0%"
  },
  {
    "smiles.repr": "CC[C@@H]1CO[C@H](C(=O)Nc2ccccc2)CN1c1cc(-c2ccc3c(N)n[nH]c3c2)nc(NC)n1",
    "quantity.name": "%Inh",
    "result": "0%"
  },
  {
    "smiles.repr": "Cc1c(Cn2c(C)c(C)n3c(=O)cc(N4CCOCC4)nc23)cccc1C(F)(F)F",
    "quantity.name": "%Inh",
    "result": "0%"
  }
]

Attention now shifts to the item below.
Look up and report measured %Inh for this entry: O=C(Nc1n[nH]c2nc(-c3cccs3)c(Br)cc12)C1CCCC1
1%

====

Test system: BMX
Settings: concentration: 1 μM, replicates: in singlicate; n = 1
%Inh reference
The reply should be a number in %, with the unit left off.

[
  {
    "compound": "Cc1c(Cn2c(C)c(C)n3c(=O)cc(N4CCOCC4)nc23)cccc1C(F)(F)F",
    "%Inh (%)": 14
  },
  {
    "compound": "Fc1ccc(-c2nn3cccc(F)c3c2-c2ccncc2)cc1",
    "%Inh (%)": 8
  }
]

Tell me its %Inh on BMX: Cn1cncc1-c1cc2c(Nc3ccc(OCc4ccccc4)cc3)ncnc2cn1
1

Tell me its %Inh on BMX: Cn1cncc1C(=O)NC1CCN(c2ccnc(Nc3ccc(F)cc3)n2)C1 (centres unmarked)
0

Tell me its %Inh on BMX: c1ccc(-c2ccnc3[nH]ccc23)cc1
0

====

%Inh reference
Tested on: DDR1
Conditions: concentration: 1 μM, replicates: in singlicate; n = 1
The reply should be a number in %, with the unit left off.

[
  {
    "compound": "CS(=O)(=O)CCNCc1nc(-c2ccc3ncnc(Nc4ccc5c(cnn5Cc5ccccc5)c4)c3c2)cs1.Cl.Cl [GW569716]",
    "study.system": "DDR1",
    "units.text": "%",
    "%Inh": 0
  }
]

Look up and report measured %Inh for this entry: O=c1cc(N2CCOCC2)nc2n(Cc3cccc(Cl)c3Cl)c3ccccc3n12 [GSK2299009]
22

Look up and report measured %Inh for this entry: Cc1cccc2c(-c3ccncn3)c(-c3ccc(F)cc3)nn12 [GW515532]
43

Look up and report measured %Inh for this entry: CC(C)c1ccc(O)cc1Nc1ccnc2ccc(C(F)(F)F)cc12 [GW482059]
18

Look up and report measured %Inh for this entry: CCn1c(-c2ccccc2)nc2cnccc21 [SB-733416]
16

Look up and report measured %Inh for this entry: COc1cc2ncnc(Nc3cccc(Br)c3)c2cc1OC.Cl [GI230329]
63
